- measurement_notes: Nile Red efflux blockade in pump-expressing yeast – validation compound set, multiplex, phenotypic, pilot screen (AID 588506);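 further: Nile Red retained in cells so higher fluorescence means more efflux inhibition; 0 = negative control wells and 1 = enniatin B 25 µM full block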
- measurement_parameters: S. cerevisiae pump-expressing triplex, Nile Red efflux flow cytometry; at 10 µM; active compounds read high; the pumps come from Candida albicans
Consider the cut-off 0. If the recorded efflux inhibition (fraction of control) is strictly smaller, the label is y; if not, the label is n.

Does this compound meet the criterion efflux inhibition (fraction of control) < 0? `COCCNC(=O)CSc1ccc(Cl)cc1` n

One more compound: COc1ccc2c(CC(=O)NCC3CCC(C(=O)O)CC3)cc(=O)oc2c1 (stereo unspecified) n

Ok, now `CC1(C)CC(=O)c2c(nc3ccccc3c2N)C1` y

Ok, now `CS(=O)(=O)c1cccc(C(=O)Oc2ccccc2)c1` y

Can you handle `CCCCCC(=O)O[C@]1(C(C)=O)CC[C@H]2[C@@H]3CCC4=CC(=O)CC[C@]4(C)[C@H]3CC[C@@]21C` next? y

Would you kindly repeat that for CC(=O)C1=C(Nc2ccc(C)cc2)CC(C)(O)C(C(C)=O)C1c1ccco1 (stereo unspecified) ? n

Likewise for `O=C(NC1CCCCC1)c1cc2nc(-c3ccco3)cc(C(F)(F)F)n2n1` ? n

Same question for `CN(C(=O)C(Cl)Cl)c1ccc(OC(=O)c2ccco2)cc1` please. y

Next entry: `C=CCNc1nc2c(c(=O)n(C)c(=O)n2C)n1CC(=C)C` y

Another: CC12CCC(C(=O)N(CCC#N)CCC#N)(CC1=O)C2(C)C (stereo unspecified) y

====

- tgt: AP-2 complex subunit beta (Homo sapiens)
- measurement_notes: beta-arrestin/AP2 interaction blockers – biochemical, validation set, GST-AP2 beads, flow cytometry, pilot screen (AID 504541);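 further: AP2 carries R879A mutation and is captured from E. coli lysate; bead-bound FITC arrestin peptide fluorescence measuring arrestin peptide binding to AP2; 0% = DMSO wells and 100% = excess unlabeled arrestin peptide control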
- measurement_parameters: FITC arrestin peptide, at 10 µM, active compounds read high, AP2 beta2 appendage fragment, R879A mutant
Square brackets hold non-standard residues; d marks the D form. Peptide text beside a SMILES is read from it. ξ: configuration not given here. ξV = CC(C)C(N)C(=O)O
value_kind: inhibition (%)
The answer is to be given in %; state only the numeric part.

Data request, read-out inhibition, for `Cn1c(=O)[nH]c(=O)c2c1nc(NCc1ccco1)n2CCCc1ccccc1` 9.94

Same thing, different molecule: `COc1ccc(Br)cc1C(=O)Nc1ccc(C(=O)O)cc1` -7.7

Record: CCNC(=O)C12CCC(C)(C(=O)O1)C2(C)C (stereo unspecified) 6.39

Moving on to the next molecule: `Cn1c(=O)c2[nH]cnc2n(C)c1=O` -6.69

One more molecule: `COc1cccc2c(=O)c(C/C=C(/C)Cl)c(C)[nH]c12` -8.34

// repeat for `COc1ccc(CCN(C)Cc2nc(Cc3ccc(OC)c(OC)c3)no2)cc1OC` and report 2.64

Queued: `CC1(C)Cc2ccccc2-c2nc(-c3ccccc3)oc(=O)c21` -10.6

// query: NCCCC(N)(C(=O)O)C(F)F (stereo unspecified) 13.1

Entry `O=C(O)CCC(=O)c1ccc(-c2ccccc2)cc1` please 10.7

Would you kindly repeat that for O=C(CC1(O)C(=O)Nc2ccccc21)c1ccccc1O (stereo unspecified) ? -2.48

# iterate: CC(=O)N(CCC(Cc1ccccc1)c1ccc2c(c1)OCO2)Cc1ccc(Cl)cc1 (stereo unspecified) -8.25

Same question for `Cc1nc2ccccc2n1CC(=O)NC1CCCC1` please. -5.83

Continue with `COc1ccc2c(c1O)Cc1ccccc1C2=O` 46.1

Please answer likewise for `Fc1ccc(C(c2ccc(F)cc2)N2CCN(C/C=C/c3ccccc3)CC2)cc1` 2.83

// query: `CN(C)c1ccc(Nc2c3c4c(cccc4n(C)c2=O)C(=O)c2ccccc2-3)cc1` 16.7

Next: `COc1cc(COc2ccc3c(C)c(Cc4ccccc4)c(=O)oc3c2)cc(OC)c1OC` 3.79

Again, but for Cc1ccc(S(=O)(=O)NC(C(=O)Oc2ccc3c(C(F)(F)F)cc(=O)oc3c2)c2ccccc2)cc1 (stereo unspecified) 59.2

Here is the next molecule: `COc1ccc(-c2nc3c(=O)n(C)c(=O)[nH]c3n2CCc2ccccc2)cc1` -0.08

Can you check COc1ccccc1C(CCN(Cc1ccccc1)C(C)=O)c1ccco1 (stereo unspecified) next? 2.58

What do you get for `O=C(/C=C/c1ccc(F)cc1)N1CC[C@@]2(O)CCCC[C@H]2C1` ? -5.97

Ok, now `O=C(CSCc1ccccc1)NCCCN1CCOCC1` -9.56

Also, CC(C)C[C@H]1C(=O)N2CCC[C@H]2[C@]2(O)O[C@](NC(=O)[C@@H]3C=C4c5cccc6[nH]c(Br)c(c56)CC4N(C)C3)(C(C)C)C(=O)N12 (stereo partly specified) please. -3.14

Another: COc1ccc(C(C)N2CC34C=CC(O3)C(C(=O)OCC(C)C)C4C2=O)cc1 (stereo unspecified) -17.5

Then what about the molecule `Cc1ccc(-n2cc(CNCCN3CCOC3=O)c(-c3ccc(F)cc3)n2)cc1` ? -0.44

And `O=C(O)CCCCCCNC(=O)c1cncc(O)c1` ? 12.7

For `O=C1C(=O)N2C(=C1C(=O)N1CCCCCC1)c1ccccc1CC21CCCC1` then? 31.8

Proceed to CC(C)(C)NCC(O)COc1cccc2c1C[C@H](O)[C@H](O)C2 (stereo partly specified) 55.4

Next molecule up: CC(=O)NC(C(=O)NCC(N)=O)C(C)C (stereo unspecified) (Ac-[ξV]-Gly-NH2) -9.46

Thanks! And `COc1ccc2oc(C)c(C(N)=O)c2c1` ? 7.21

Proceed to Cc1ncoc1C(=O)N1CCCC(C(=O)c2ccc(-c3ccccc3)c(F)c2)C1 (stereo unspecified) 4.25

Check `COc1ccccc1NC(=O)N1CCc2[nH]c3ccc(Cl)cc3c2C1` too. -2.38

Now the molecule `CC(=O)c1cccc(NC(=O)N[C@@H](CC(C)C)C(=O)O)c1` 17.6

Again, but for Nc1nc(SCc2ccc([N+](=O)[O-])cc2)c2ncn(C3OC(CO)C(O)C3O)c2n1 (stereo unspecified) 14.6

Now this one: `Cc1ccc(O)c(CCc2ccccc2)n1` 3.07

Next molecule: `COc1ccc2oc(-c3ccco3)cc(=O)c2c1` -28.7

And what about the molecule `Cc1ccc(C2=NOC(=O)/C2=C\C=C\c2ccccc2)cc1` ? 13

And what about the molecule `Cc1cc(C)c(NC(=O)NC(=O)C(Cl)(Cl)Cl)c(C)c1` ? -8.2

Same again, this time with `CCOc1ncnc2c1[nH]c1ccccc12` -7.64

What do you have for CCC(CO)NCCNC(CC)CO (stereo unspecified) ? 33.3

Also need `Cc1nonc1CN(C)C(=O)c1ccc(OC2CCN(C(=O)c3cccnc3)CC2)cc1` , thanks. -7.99

Now consider CC1CC(OC(=O)C(O)c2ccccc2)CC(C)(C)N1C (stereo unspecified) and answer again. -13.2

Another molecule to check: `CCOC(=O)C1=C2c3ccc4ccccc4c3CC(C)(C)N2C(=O)C1=O` 1.16

Same lookup for COCC(C)NC(=O)c1ccc(CN2CCc3ccccc3C2)cc1 (stereo unspecified) , please. 53.4

Same read-out for `CCOC(=O)c1cccc(P(C)(C)=O)c1` ? -7.26

What would you report for c1ccc2c(c1)CCOC2CNCCCN1CCCCC1 (stereo unspecified) ? -5.37

Also, CC(C)(CO)CNC(=O)CC1C(=O)NCCN1CC(c1ccccc1)c1ccccc1 (stereo unspecified) please. -0.19
